Recorded values, source the supplement of paper PMC6992640.

Test system: WHIM30 (cells of a triple-negative basal-like breast cancer xenograft);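 note: PDX cells carrying CMV promoter-driven luciferase, viability read as total photon flux per second by IVIS imaging following D-luciferin, vehicle control 0.1% DMSO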
Experiment description: cell viability (% of vehicle); higher = less cytotoxic
Reported conditions: 10 µM; 72 h
Where a name gives a salt, the structure may show the parent alone.
So basically: is cell viability under 100? Then T. Not under? Then F.

{"Compound": "CCN(CC)CCOC(=O)c1ccc(N)cc1", "Label": "T"}
{"Compound": "Nc1ccn(C2CCC(CO)O2)c(=O)n1 (centres undefined)", "Label": "F"}
{"Compound": "Cl.NC(N)=NC(=O)Cc1c(Cl)cccc1Cl [Guanfacine hydrochloride]", "Label": "F"}
{"Compound": "CCCNCC(O)COc1ccccc1C(=O)CCc1ccccc1.Cl (centres undefined) [Propafenone HCl]", "Label": "F"}
{"Compound": "Cc1nccn1CC1CCc2c(c3ccccc3n2C)C1=O.Cl (centres undefined) [Ondansetron HCl]", "Label": "F"}
{"Compound": "CC(c1cc2ccccc2s1)N(O)C(N)=O (centres undefined)", "Label": "F"}
{"Compound": "CN(C)c1ccc(O)c2c1CC1CC3C(N(C)C)C(=O)C(C(N)=O)=C(O)C3(O)C(=O)C1=C2O.Cl (centres undefined) [Minocycline HCl]", "Label": "T"}
{"Compound": "Cl.Clc1cccc(Cl)c1NC1=NCCN1 [Clonidine HCl]", "Label": "F"}
{"Compound": "CC12CCC(O)CC1=CCC1C2CCC2(C)C(c3cccnc3)=CCC12 (centres undefined)", "Label": "F"}
{"Compound": "Nc1nc(=O)c2c(CCc3ccc(C(=O)NC(CCC(=O)[O-])C(=O)[O-])cc3)c[nH]c2[nH]1.[Na+].[Na+] (centres undefined)", "Label": "F"}
{"Compound": "CCOc1ccc(NC(C)=O)cc1", "Label": "T"}
{"Compound": "CCNC1(C(N)=O)CCN(c2ncnc3c2nc(-c2ccccc2Cl)n3-c2ccc(Cl)cc2)CC1.Cl", "Label": "F"}
{"Compound": "CN1CCN(c2cc3c(cc2F)c(=O)c(C(=O)O)cn3-c2ccc(F)cc2)CC1 [Difloxacin HCl]", "Label": "F"}
{"Compound": "O=C(O)CC(O)CC(O)C=Cc1c(C2CC2)nc2ccccc2c1-c1ccc(F)cc1 (centres undefined)", "Label": "T"}
{"Compound": "CC(C)CN(CC(O)C(Cc1ccccc1)NC(=O)OC1CCOC1)S(=O)(=O)c1ccc(N)cc1 (centres undefined)", "Label": "F"}
{"Compound": "O=C([O-])P(=O)([O-])[O-].[Na+].[Na+].[Na+] [Foscarnet Sodium]", "Label": "F"}
{"Compound": "COC(=O)c1ccc2c(c1)NC(=O)C2=C(Nc1ccc(N(C)C(=O)CN2CCN(C)CC2)cc1)c1ccccc1", "Label": "T"}
{"Compound": "CC[C@@]1(O)C(=O)OCc2c1cc1n(c2=O)Cc2cc3c(CN(C)C)c(O)ccc3nc2-1.Cl [Topotecan HCl]", "Label": "T"}
{"Compound": "CCCc1cc(C(N)=S)ccn1 [Protionamide]", "Label": "F"}
{"Compound": "CC(C)(C)NCC(O)c1cc(O)cc(O)c1.CC(C)(C)NCC(O)c1cc(O)cc(O)c1.O=S(=O)(O)O (centres undefined) [Terbutaline Sulfate]", "Label": "F"}
{"Compound": "CC1=NS(=O)(=O)c2cc(Cl)ccc2N1 [Diazoxide]", "Label": "F"}
